- METHOD DESCRIPTION: gradient 5% acetonitrile 3 min, to 50% in 2 min, to 85% in 15 min, held 3 min, 100 µL/min
- EXPERIMENTAL PARAMETERS: column: Zorbax Extend-C18 2.1 x 50 mm; eluents: water / acetonitrile, 0.1% formic acid
Quick rule: RP-LC retention time of at least 700 s means Met, below that means Not met.

Recorded results for 2 molecules are shown here.
State whether the measured RP-LC retention time reaches 700 s, counting equality as reaching it, for "Cn1c(=O)c(N2CCN(C(=O)c3cc(F)ccc3Cl)CC2)nc2ccncc21"
Not met

State whether the measured RP-LC retention time reaches 700 s, counting equality as reaching it, for C[C@]12CCC(=O)C(=O)C1CC[C@@H]1[C@@H]2CC[C@]2(C)C(=O)CC[C@@H]12 (stereo not given in full)
Met

More entries:
State whether the measured RP-LC retention time reaches 700 s, counting equality as reaching it, for "COc1cc(-c2oc3cc(O)cc(O)c3c(=O)c2O[C@@H]2O[C@H](CO)[C@@H](O)[C@H](O)[C@H]2O)cc(OC)c1O"
Not met

State whether the measured RP-LC retention time reaches 700 s, counting equality as reaching it, for "COC(=O)C1=CN(c2cc(Cl)c(OC)cc2OC)c2cc(F)ccc2S1(=O)=O"
Met

State whether the measured RP-LC retention time reaches 700 s, counting equality as reaching it, for "Cc1ccc(C(=O)NCCc2nc3cccnc3n2C(C)C)cc1"
Not met
